Attribution: PubChem BioAssay AID1745853

# System: Nicotinamide N-methyltransferase (Homo sapiens) (UniProt P40261)
# Sequence (P40261 whole entry, looked up): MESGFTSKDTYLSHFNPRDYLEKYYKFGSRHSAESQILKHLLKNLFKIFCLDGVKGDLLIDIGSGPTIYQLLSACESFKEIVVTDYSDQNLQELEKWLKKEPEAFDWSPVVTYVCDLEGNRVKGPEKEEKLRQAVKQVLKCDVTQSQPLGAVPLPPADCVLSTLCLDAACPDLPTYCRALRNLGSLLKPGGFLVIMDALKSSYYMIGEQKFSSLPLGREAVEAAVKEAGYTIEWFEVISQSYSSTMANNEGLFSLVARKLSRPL
# Test Method Notes: Primary Screen for Target Class Profiling of Small Molecule Inhibitors of Methyltransferases; note: % is set by controls: 0 for no effect and ±100 for the full control effect
# Measurement Setup: purified enzyme, MTase-Glo SAH luminescence; measured here: NNMT inhibition; at 40 µM; stronger effect = lower value
In all, about 25,000 compounds went through this assay and about 970 (3.9%) were called active. Roughly 8% stayed inconclusive and do not appear here. The sample holds actives, similar compounds and a random draw of the others, so the mix is not that of the screen.
# activity change, negative = inhibition listing for each entry below
Reported Property: activity change, negative = inhibition

Compound: Cn1nccc1C(=O)NC1CCCN(c2cc(N3CCCC3)ncn2)C1 (stereo not drawn)
System: Nicotinamide N-methyltransferase (Homo sapiens) (UniProt P40261)
Observed Result: -17.7%

Compound: CC1(C=O)CC[C@]2(C(=O)O[C@@H]3O[C@H](CO)[C@@H](O)[C@H](O)[C@H]3O)CC[C@]3(C)C(=CCC4[C@@]5(C)C[C@H](O)[C@H](O[C@@H]6OC[C@@H](O)[C@H](O)[C@H]6O)[C@@](C)(CO)C5CC[C@]43C)C2C1 (stereo partly drawn)
System: Nicotinamide N-methyltransferase (Homo sapiens) (UniProt P40261)
Observed Result: -15.1%

Compound: CCCS(=O)(=O)NCC1Cn2cccc2C(=O)N1CCOC (stereo not drawn)
System: Nicotinamide N-methyltransferase (Homo sapiens) (UniProt P40261)
Observed Result: -3.41%

Compound: O=C(O)C1=NOC2CN([S+](=O)([O-])c3cc(C(F)(F)F)cc(C(F)(F)F)c3)CC12 (stereo not drawn)
System: Nicotinamide N-methyltransferase (Homo sapiens) (UniProt P40261)
Observed Result: -7.33%

Compound: O=C(C1CCCC1)N1CCCC(c2noc(COc3ccccc3)n2)C1 (stereo not drawn)
System: Nicotinamide N-methyltransferase (Homo sapiens) (UniProt P40261)
Observed Result: -18.3%

Compound: CCOC(=O)c1ccc(N2C(=O)CSc3c(c4ccccc4n3C)C2C(=O)NCc2ccccc2)cc1 (stereo not drawn)
System: Nicotinamide N-methyltransferase (Homo sapiens) (UniProt P40261)
Observed Result: 10.6%

Compound: CC(C)c1nccn1CCCNc1nc(-c2ccncc2)nc2c1cnn2C
System: Nicotinamide N-methyltransferase (Homo sapiens) (UniProt P40261)
Observed Result: -53%

Compound: CCc1cccc(NC(=O)Cn2c(=O)oc3cc(S(=O)(=O)N4CCC(C)CC4)ccc32)c1
System: Nicotinamide N-methyltransferase (Homo sapiens) (UniProt P40261)
Observed Result: -16.8%
